Data provenance is PubChem BioAssay (NCI).

# Test system: LOX IMVI melanoma
# Method Description: NCI tumour cell line growth inhibition, 48 h
Reported Metric: GI50

Query block: What GI50 value was documented for this compound, `COc1ccc(-c2cnc(SCC(=O)c3c(C)n(C)n(-c4ccccc4)c3=O)n2-c2ccc(OC)cc2)cc1` ?
Result block: 46.5 µM

Query block: What GI50 value was documented for this compound, `CN(C)c1ccc(/C=N/NC(=O)CSc2nc3sc4c(c3c(=O)n2-c2ccccc2)CCCCC4)cc1` ?
Result block: 3.05 µM

Query block: What GI50 value was documented for this compound, `CS(=O)(=O)OCCCCOS(C)(=O)=O` ?
Result block: 5.96 µM

Query block: What GI50 value was documented for this compound, `Cc1ccccc1NC(=O)N/C(N)=N/c1nc(C)c(C)s1` ?
Result block: 0.444 µM

Query block: What GI50 value was documented for this compound, `O=c1[nH]ccc2nc(N3CCC(O)CC3)nc(Nc3ccc(N4CCOCC4)cc3)c12` ?
Result block: 1.38 µM

Query block: What GI50 value was documented for this compound, `COc1cc2c(cc1OCCCOc1cc3c(cc1OC)C(=O)N1CC(F)(F)C[C@H]1C=N3)N=C[C@@H]1CC(F)(F)CN1C2=O` ?
Result block: 0.256 µM
